Value source: patent US7078059B2

- Tested on: mouse bone marrow derived osteoprogenitor cells
- TEST DETAILS: In vitro osteoblast differentiation assay (cellular alkaline phosphatase)
- Assay type: cell-based
- CONDITION DETAILS: tables 8-10 combined, number 18; LA number = ng/ml lanthanum; Control = Baseline+10^−10 M 17-estradiol
Collected Combined results on osteoblast differentiation (relative specific ALP activity), Mean ± SD values appear next to each entry.
ASSAY READOUT: Combined results on osteoblast differentiation (relative specific ALP activity), Mean ± SD

{"COMPOUND": "O.O.O.O.O=C([O-])[O-].O=C([O-])[O-].O=C([O-])[O-].[La+3].[La+3] [LA 15000, lanthanum carbonate tetrahydrate]", "SYSTEM TESTED": "mouse bone marrow derived osteoprogenitor cells", "DATA VALUE": "0.38 ± 0.11 (***)"}
{"COMPOUND": "O.O.O.O.O=C([O-])[O-].O=C([O-])[O-].O=C([O-])[O-].[La+3].[La+3] [LA 100, lanthanum carbonate tetrahydrate]", "SYSTEM TESTED": "mouse bone marrow derived osteoprogenitor cells", "DATA VALUE": "1.10 ± 0.18 (*)"}
{"COMPOUND": "O.O.O.O.O=C([O-])[O-].O=C([O-])[O-].O=C([O-])[O-].[La+3].[La+3] [LA 5000, lanthanum carbonate tetrahydrate]", "SYSTEM TESTED": "mouse bone marrow derived osteoprogenitor cells", "DATA VALUE": "0.48 ± 0.09 (***)"}
